All figures here come from the supplement of paper PMC6555819.

Reported PBM binding z-score by item:
# Tested on: PPARa:RXRa (NR concentration 270 nM, RXRa partner concentration 90 nM)
# Assay info: PBM binding z-score (relative to random genomic background probes); higher = stronger binding; sequences stand for … in GC…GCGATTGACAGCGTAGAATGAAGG
Respond with the number and no other words.

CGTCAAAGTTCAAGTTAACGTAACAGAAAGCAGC	5.3
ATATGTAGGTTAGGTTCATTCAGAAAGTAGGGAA	4.1
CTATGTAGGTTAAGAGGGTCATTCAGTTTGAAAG	4.89
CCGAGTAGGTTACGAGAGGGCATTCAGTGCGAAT	2.19
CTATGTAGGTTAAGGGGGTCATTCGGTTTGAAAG	6.15

Enquiry: Any idea what PBM binding z-score came out for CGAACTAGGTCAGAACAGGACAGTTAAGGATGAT on PPARa:RXRa (NR concentration 270 nM, RXRa partner concentration 90 nM)?
Return: 3.07

Enquiry: Same question for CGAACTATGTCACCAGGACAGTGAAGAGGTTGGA please.
Return: 1.17

Enquiry: Then what about the sequence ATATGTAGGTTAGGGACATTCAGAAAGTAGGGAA ?
Return: 2.39

Enquiry: Follow-up item: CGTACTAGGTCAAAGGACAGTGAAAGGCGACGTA
Return: 4.83

Enquiry: Same again, this time with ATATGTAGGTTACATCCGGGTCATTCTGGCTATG
Return: 4.43

---

# Tested on: PPARg:RXRa 270nM:90nM, anti-RXR (NR concentration 270 nM, RXRa partner concentration 90 nM)
# Assay info: PBM binding z-score (relative to random genomic background probes); higher = stronger binding; sequences stand for … in GC…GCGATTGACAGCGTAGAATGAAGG
Class True: PBM binding z-score at least 5. Class False: PBM binding z-score below 5.

Solved entries:
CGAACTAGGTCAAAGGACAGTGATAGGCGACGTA	True
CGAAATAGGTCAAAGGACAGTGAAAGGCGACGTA	True
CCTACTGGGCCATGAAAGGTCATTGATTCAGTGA	False
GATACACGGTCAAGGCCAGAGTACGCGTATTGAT	False
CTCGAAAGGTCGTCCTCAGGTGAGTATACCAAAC	False

Enquiry: Check if PBM binding z-score >= 5 (inclusive). Item: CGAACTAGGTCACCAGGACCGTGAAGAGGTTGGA
Return: True

Enquiry: Queued: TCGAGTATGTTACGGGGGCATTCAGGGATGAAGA
Return: False

Enquiry: Would you mind doing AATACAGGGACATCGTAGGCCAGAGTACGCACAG as well?
Return: False

Enquiry: Lookup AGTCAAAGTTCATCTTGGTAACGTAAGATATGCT
Return: True

Enquiry: Also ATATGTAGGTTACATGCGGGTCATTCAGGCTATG , if possible.
Return: True

Enquiry: Next sequence: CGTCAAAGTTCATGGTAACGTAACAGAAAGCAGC
Return: True

Enquiry: Entry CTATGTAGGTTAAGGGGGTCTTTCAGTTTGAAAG please
Return: True

---

# System: PPARg DBDmut IVT, anti-PPARg (DBD mutation: PPARg1 K132A/R137A, NR concentration 270 nM)
# Assay info: PBM binding z-score (relative to random genomic background probes); higher = stronger binding; sequences stand for … in GC…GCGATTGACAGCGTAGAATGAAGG
sequences and their reported PBM binding z-score
Give a plain numeric answer without units written out.

Solved cases below.
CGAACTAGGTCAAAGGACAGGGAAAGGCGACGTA	4.37
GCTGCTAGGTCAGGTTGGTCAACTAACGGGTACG	-0.77

Enquiry: What PBM binding z-score value was documented for this sequence, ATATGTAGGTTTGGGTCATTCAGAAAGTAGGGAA ?
Return: 1.3

Enquiry: Also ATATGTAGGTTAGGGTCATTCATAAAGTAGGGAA , if possible.
Return: 4.07

Enquiry: And the next one, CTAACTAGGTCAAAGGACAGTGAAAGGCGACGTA ?
Return: 1.86

Enquiry: Repeat for the following sequence: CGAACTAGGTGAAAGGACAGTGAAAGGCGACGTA
Return: 1.83

Enquiry: Entry to check: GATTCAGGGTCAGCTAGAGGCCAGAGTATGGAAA
Return: -0.207

Enquiry: Now this one: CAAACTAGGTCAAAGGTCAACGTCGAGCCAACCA
Return: 5.08

Enquiry: Try this sequence too: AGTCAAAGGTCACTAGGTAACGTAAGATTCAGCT
Return: 0.924

Enquiry: Repeat for the following sequence: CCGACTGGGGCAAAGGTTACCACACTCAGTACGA
Return: 0.282

Enquiry: Again, but for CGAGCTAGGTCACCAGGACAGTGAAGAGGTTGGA
Return: -1.08

Enquiry: Next entry: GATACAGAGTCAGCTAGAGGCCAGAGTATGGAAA
Return: -0.534

Enquiry: Could you do the same for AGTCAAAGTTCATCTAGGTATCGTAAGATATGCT , please?
Return: 0.493

Enquiry: Further, for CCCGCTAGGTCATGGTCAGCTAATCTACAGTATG ?
Return: -0.741

---

# System: PPARg DBDmut:RXRa IVT, anti-PPARg (DBD mutation: PPARg1 K132A/R137A, NR concentration 270 nM, RXRa partner concentration 90 nM)
# Assay info: PBM binding z-score (relative to random genomic background probes); higher = stronger binding; sequences stand for … in GC…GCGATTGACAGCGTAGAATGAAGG
Readout kind: PBM binding z-score
# print the numeric value only

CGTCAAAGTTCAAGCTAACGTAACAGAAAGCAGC	1.34

Enquiry: Quick one: PBM binding z-score of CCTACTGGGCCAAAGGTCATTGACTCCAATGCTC ?
Return: 0.277

Enquiry: Now consider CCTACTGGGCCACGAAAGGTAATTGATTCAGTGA .
Return: 0.766

Enquiry: Try the sequence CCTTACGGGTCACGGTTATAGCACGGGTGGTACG
Return: 0.0456

Enquiry: Now the same for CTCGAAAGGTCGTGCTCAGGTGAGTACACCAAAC
Return: 1.56

Enquiry: Could you do the same for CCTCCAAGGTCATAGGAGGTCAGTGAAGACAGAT , please?
Return: 1.58

---

# System: PPARg DBDmut:RXRa IVT, anti-PPARg (DBD mutation: PPARg1 K132A/R137A, NR concentration 270 nM, RXRa partner concentration 90 nM)
# Assay info: PBM binding z-score (relative to random genomic background probes); higher = stronger binding; sequences stand for … in GC…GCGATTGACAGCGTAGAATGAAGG
Readout kind: PBM binding z-score

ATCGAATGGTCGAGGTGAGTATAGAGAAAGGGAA	1.03

Enquiry: What value of PBM binding z-score has been recorded for this entry: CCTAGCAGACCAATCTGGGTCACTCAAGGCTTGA
Return: 0.573

Enquiry: Another sequence to look at: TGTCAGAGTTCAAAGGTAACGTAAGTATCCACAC
Return: 0.991

Enquiry: Also check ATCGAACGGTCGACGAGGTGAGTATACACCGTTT
Return: 0.31

Enquiry: Queued: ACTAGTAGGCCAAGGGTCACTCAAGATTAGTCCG
Return: 0.82

Enquiry: Okay, and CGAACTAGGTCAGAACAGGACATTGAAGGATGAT ?
Return: 2.82

Enquiry: Now try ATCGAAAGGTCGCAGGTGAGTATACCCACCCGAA .
Return: 1.46

Enquiry: Then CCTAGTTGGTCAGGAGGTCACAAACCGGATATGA ?
Return: 0.681

Enquiry: Next up: ACTAGTTGGTAAGCTGAGGTCACACACAATTCGG
Return: 1

Enquiry: Try the sequence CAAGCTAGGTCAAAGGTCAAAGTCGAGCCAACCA
Return: 1.27

Enquiry: Field entry: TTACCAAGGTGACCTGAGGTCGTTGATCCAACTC
Return: 0.109

Enquiry: Next up: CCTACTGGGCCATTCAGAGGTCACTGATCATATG
Return: 0.462

Enquiry: Now this one: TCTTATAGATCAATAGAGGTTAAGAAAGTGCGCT
Return: 0.623

Enquiry: Let us now turn to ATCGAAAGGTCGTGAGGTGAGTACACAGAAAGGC
Return: 1.04

Enquiry: Entry to check: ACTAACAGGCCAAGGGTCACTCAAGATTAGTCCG
Return: 0.489

Enquiry: Entry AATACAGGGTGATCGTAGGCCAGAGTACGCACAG please
Return: 0.927

Enquiry: Could you do the same for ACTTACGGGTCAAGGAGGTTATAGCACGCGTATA , please?
Return: 1.06

Enquiry: Also, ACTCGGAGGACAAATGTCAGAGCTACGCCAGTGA please.
Return: 0.143

Enquiry: // same read-out, input: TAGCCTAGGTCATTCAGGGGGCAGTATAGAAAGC
Return: 5.63

Enquiry: Param item: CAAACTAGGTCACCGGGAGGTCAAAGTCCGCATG
Return: 1.69

Enquiry: Would you mind doing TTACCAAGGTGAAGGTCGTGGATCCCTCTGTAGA as well?
Return: -0.363

Enquiry: For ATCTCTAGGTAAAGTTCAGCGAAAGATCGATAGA then?
Return: 1.45
